system: CAKI-1; assay: NCI tumour cell line growth inhibition, 48 h
Activity calls are given as the source filed them. No stated cut-off is given here; in the data, active = GI50 up to about 1.1 µM and inactive = higher.
MEASURED PROPERTY: GI50

# GI50 (compound: OCCCN=C1CCCCC1 ) is > 100 µM (inactive)

Quick note, GI50 for Cc1nc2cccc([N+](=O)[O-])c2c(NCCCN(C)C)c1C landed at 32.9 µM (inactive)

The compound listed as O=C(Nc1c(O)[nH]c(=S)[nH]c1=O)c1ccccc1F shows GI50 equal to > 100 µM (inactive)

For record COc1cc(CNc2nc3ccccc3n2Cc2ccccc2)cc(CN2CCOCC2)c1O the listed GI50 is 26.2 µM (inactive)

# compound CO/C(=N/N1CC1C(F)(F)F)c1ccncc1 (stereo not drawn) ; its GI50 = > 100 µM (inactive)

Recorded result, CCCCCCCCCCCCCCCC(=O)ON1C(=S)NC(C)(c2ccccc2)C1=S (stereo not drawn) , GI50: > 100 µM (inactive)

Reported GI50 for O=C(O)\C=C/C=C/C=C/C=C/C(=O)O was > 100 µM (inactive)

Record Cc1cc(/C=C/c2cc[n+](C)c3ccccc23)c(O)c2ncccc12 , field GI50: 10.1 µM (inactive)

Just so you know, measured GI50 for CCOC(=O)CNC(=O)C(CCC(=O)N(C)O)NC(=O)CCC(N)C(=O)O (stereo not drawn) came out at > 100 µM (inactive)

Just so you know, measured GI50 for COc1nc(N)nc2nc[nH]c12 came out at 162 µM (inactive)

# GI50 of COc1ccc2c(c1)CC[C@@H]1C2CC[C@]2(C)C(=O)NC(=O)CC12 (stereo partly drawn) = > 100 µM (inactive)

Value of measured GI50 for the entry COc1ccc(NC(=O)CC(=O)N2N=C(N3CCCCC3)CC2c2ccccc2)cc1 (stereo not drawn) : > 100 µM (inactive)

The measured GI50 associated with CC1CC(NN(C)C)C2(C(N)=O)C(N)=NC(=O)C12C#N (stereo not drawn) reads > 100 µM (inactive)

# GI50 of O=C(/C=C/c1ccccc1Cl)c1cccc2ccccc12 = 12.5 µM (inactive)

CC12C=C[C@]3(CC[C@@H]4[C@@](C)(CO)CCC[C@]4(C)C3CC1)C2 (stereo partly drawn) yielded GI50 of 12.8 µM (inactive)

Per the record, C=CCN1C(=O)/C(=C/c2ccccc2)N=C1SC/C=C/C has GI50 of > 100 µM (inactive)

GI50 reading for CC(NC(=O)Cc1ccccc1)NC(=O)C(C)C(=O)NCc1ccccc1 (stereo not drawn) : 81.7 µM (inactive)

GI50 measured on Cc1cc(Cl)cc2c1NC(=O)C2(O)CC(=O)c1ccc(F)cc1 (stereo not drawn) = > 100 µM (inactive)

Quick note, GI50 for Cc1ccc([N+](=O)[O-])cc1/N=N/C(=O)NNc1cc([N+](=O)[O-])ccc1C landed at 25.9 µM (inactive)

For reference, reported GI50 for COC(=O)C[C@H]1CCC2(OCCO2)[C@]1(C)C(=O)OC stands at > 100 µM (inactive)

# compound CN(C)CC1CCC/C(=C\c2ccc(OC(=O)/C=C/c3ccccc3)cc2)C1=O (stereo not drawn) ; its GI50 = 1.82 µM (inactive)

GI50 reading for O=C1C2C3C=C4c5ccccc5N(c5ccccc5)C4(C2C(=O)N1c1ccc(Br)cc1)[C@H]1C(=O)N(c2ccc(Br)cc2)C(=O)[C@@H]31 (stereo partly drawn) : 18.8 µM (inactive)

Looking up Cc1nc2sccn2c1C(=O)N/N=C1\SCC(=O)N1C , I found its GI50 recorded as > 100 µM (inactive)
